These measurements were taken from PubChem BioAssay AID2060905.

- System: 282377-053-R-J1-PDC complex spheroid viability;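 also: spheroids exposed to agents for seven days before readout; luminescence viability as percent of DMSO vehicle control wells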
- test_summary: Anticancer human tumor 282377-053-R-J1-PDC patient-derived colon adenocarcinoma cell line growth inhibition [RAS]
- test_context: second compound 0.1 µM; first compound 0.03 µM; stronger effect = lower value
readout_name: viability, T/C (%)

[[record]]
compound = "CCc1c2c(nc3ccc(O)cc13)-c1cc3c(c(=O)n1C2)COC(=O)[C@]3(O)CC + C=CC(=O)N1CCN(c2nc(OCC3CCCN3C)nc3c(F)c(-c4nc(N)cc(C)c4C(F)(F)F)c(Cl)cc23)C(C)C1"
system_name = "282377-053-R-J1-PDC complex spheroid viability"
result_number = 85.8

[[record]]
compound = "CCc1c2c(nc3ccc(O)cc13)-c1cc3c(c(=O)n1C2)COC(=O)[C@]3(O)CC + C#Cc1c(F)ccc2cc(O)cc(-c3ncc4c(N5CC6CCC(C5)N6)nc(OCC56CCCN5CC(F)C6)nc4c3F)c12"
system_name = "282377-053-R-J1-PDC complex spheroid viability"
result_number = 95.8

[[record]]
compound = "CC1(C)CCC(Nc2ncc(C(F)(F)F)c(-c3c[nH]c4c(P(C)(C)=O)c(C#N)ccc34)n2)CN1 (centres undefined) + C=CC(=O)N1CCN(c2nc(OCC3CCCN3C)nc3c(F)c(-c4nc(N)cc(C)c4C(F)(F)F)c(Cl)cc23)C(C)C1"
system_name = "282377-053-R-J1-PDC complex spheroid viability"
result_number = 66.3

[[record]]
compound = "CC1(C)CCC(Nc2ncc(C(F)(F)F)c(-c3c[nH]c4c(P(C)(C)=O)c(C#N)ccc34)n2)CN1 (centres undefined) + C#Cc1c(F)ccc2cc(O)cc(-c3ncc4c(N5CC6CCC(C5)N6)nc(OCC56CCCN5CC(F)C6)nc4c3F)c12"
system_name = "282377-053-R-J1-PDC complex spheroid viability"
result_number = 72.6

